// provenance: patent US20250147039A1

measurementProtocol: Formation of 1,5-cz-[Ln(Lig)] from Lig and Ln^III ions (metal dependent click-zip), MOPS/NaOH buffer pH 7.0, analytical HPLC (Charts 1, 2)
measurementParameters: Tb^III; after 1 week at 80° C.; MOPS/NaOH buffer pH 7.0
The threshold is 70%. Values of conversion to 1,5-cz-[Ln(Lig)], Tb^III beneath it are tagged 1.0; values meeting or exceeding it are tagged 0.0.

> print(dat)
                                   compound  category
1  [N-]=[N+]=NCc1cccc(CN2CCN(CC(=O)O)CCN(Cc3cccc(C#Cc4ccccc4)n3)CCN(CC(=O)O)CC2)n1 [TD944]       1.0
2  C#Cc1cccc(CN2CCN(CC(=O)NCC(=O)O)CCN(Cc3cc(-c4ccccc4)cc(CN=[N+]=[N-])n3)CCN(CC(=O)NCC(=O)O)CC2)n1 [TD778]       1.0
3  [N-]=[N+]=NCc1cccc(CN2CCN(CC(=O)O)CCN(Cc3cccc(C#CC45CC6CC(CC(C6)C4)C5)n3)CCN(CC(=O)O)CC2)n1 [TD992]       0.0
4  C#Cc1cccc(CN2CCN(CC(=O)O)CCN(Cc3cc(C(=O)OC(C)C)cc(CN=[N+]=[N-])n3)CCN(CC(=O)O)CC2)n1 [TD1148]       1.0
5  C#Cc1cccc(CN2CCN(CCC(=O)O)CCN(Cc3cccc(CN=[N+]=[N-])n3)CCN(CCC(=O)O)CC2)n1 [TD801]       1.0
6  C#Cc1cccc(CN2CCN(CC(=O)O)CCN(Cc3cc(Cl)cc(CN=[N+]=[N-])n3)CCN(CC(=O)O)CC2)n1 [TD764]       0.0
7  C#Cc1cccc(CN2CCN(CC(=O)O)CCN(Cc3cccc(CN=[N+]=[N-])n3)CCN(CP(=O)(O)O)CC2)n1 [TD714]       0.0
